- Tested on: HepG2
- run.description: GSK_TCMDC: Percent inhibition of human HepG2 cell line. Test compounds present at 10uM.
- Type: functional
measurement.kind: Inhibition (%)
All answers are understood in %, so give the number only.

{"compound": "O=C(/C=C/c1ccc(I)cc1)NCCCCCN1CCC(c2c[nH]c3ccc(O)cc23)CC1", "Inhibition [%]": 14}

Log: HepG2, compound CN(CCS(C)(=O)=O)Cc1ccc(-c2ccc3ncnc(Nc4ccc(OCc5cccc(F)c5)c(Cl)c4)c3c2)o1.Cc1ccc(S(=O)(=O)O)cc1 , Inhibition = 25

Log: HepG2, compound O=C(Nc1ccc(-c2nc3ccccc3[nH]2)cc1)C1CCCN(C2CCC2)C1 (configuration not stated) , Inhibition = 0

Log: HepG2, compound Cc1ccc(O)c(-c2cc(C(=O)Nc3ccc(S(=O)(=O)N4CCCCCC4)cc3)[nH]n2)c1 , Inhibition = 25

Log: HepG2, compound Cc1nn(-c2ccccc2)c2sc(C(=O)N(CCCN(C)C)c3nc(-c4ccccc4)cs3)cc12.Cl , Inhibition = 99

Log: HepG2, compound O=C(O)C(F)(F)F.O=C1CCCN1CCCNCc1ccc(-c2ccc(-c3nc4cc(F)ccc4[nH]3)s2)cc1 , Inhibition = 19

Log: HepG2, compound O=C(/C=C/c1ccc(Cl)c(Cl)c1)NCCCCCN1CCCC(C(=O)Nc2ccc(F)c(Cl)c2)C1 (configuration not stated) , Inhibition = 28

Log: HepG2, compound COc1ccc(Cn2c(Nc3cccc(C(F)(F)F)c3)nc3cc(C(=O)NC4CC4)cnc32)cc1Cl , Inhibition = 0

Log: HepG2, compound CNCCNCc1ccc(-c2ccc(-c3nc4cccc(C)c4[nH]3)cc2)cc1.O=C(O)C(F)(F)F , Inhibition = 19

Log: HepG2, compound Cc1cc(O)c(CN2CCN(Cc3cccs3)CC2)cc1C(C)C , Inhibition = 7

Log: HepG2, compound Cc1[nH]c(C)c(-c2ccc(OCc3cc(F)cc(F)c3)nc2)c(=O)c1Br , Inhibition = 37

Log: HepG2, compound O=C(O)C(F)(F)F.c1ccc(C2CCN(Cc3ccc(-c4c[nH]c5nc(NC6CCCC6)ncc45)cc3)CC2)cc1 , Inhibition = 39

Log: HepG2, compound C=Cc1sc(CNCCCNc2cc(=O)c3ccccc3[nH]2)c(C)c1Br , Inhibition = 0

Log: HepG2, compound NC(=O)c1cnc2cc(-c3ccncc3)cc(Nc3ccc(NC(=O)C4CCCCC4)cc3)c2c1 , Inhibition = 58

Log: HepG2, compound CCNc1cc(C(=O)N[C@@H](Cc2ccccc2)[C@H](O)CNC23CCC(CC2)CC3)cc(N2CCCCS2(=O)=O)c1.Cl , Inhibition = 10

Log: HepG2, compound Clc1ccc2c(N3CCCNCC3)ccnc2c1 , Inhibition = 11

###

Each record here notes measured Inhibition.
- System: Plasmodium falciparum
- run.description: GSK_TCMDC: Inhibition of Plasmodium falciparum 3D7 in whole red blood cells, using parasite LDH activity as an index of growth. Test compounds present at 2uM
- Assay type: functional
All answers are understood in %, so give the number only.

Worked examples, 5 compounds total:
{"compound": "COc1ccc(Oc2ccc(-c3c(O)cc(C)nc3C)cc2)cc1", "system.name": "Plasmodium falciparum", "Inhibition (%)": 93}
{"compound": "Nc1nc(N)c2c(Oc3cc(Cl)c(Cl)c(Cl)c3)cccc2n1", "system.name": "Plasmodium falciparum", "Inhibition (%)": 100}
{"compound": "CCCCCOc1ccc(/N=C2\\C=C(O)C(=O)c3ccccc32)cc1", "system.name": "Plasmodium falciparum", "Inhibition (%)": 99}
{"compound": "O=C(NCCN1CCCCC1)N1CCCN(c2ncnc3cc(-c4ccccc4)sc23)CC1.O=C(O)C(F)(F)F", "system.name": "Plasmodium falciparum", "Inhibition (%)": 89}
{"compound": "Clc1ccc2c(NCCc3ccccn3)ccnc2c1", "system.name": "Plasmodium falciparum", "Inhibition (%)": 92}

# next compound below
Field Inhibition (entry NC1CCCN(Cc2cccc(-c3ccc(-c4nc5cc(C(F)(F)F)ccc5[nH]4)cc3)c2)C1.O=C(O)C(F)(F)F (stereo not given) ) reads 99
